Measured % of WT kcat/KM by item
Target: Factor X (FX), P00742
Sequence (P00742 whole entry, looked up): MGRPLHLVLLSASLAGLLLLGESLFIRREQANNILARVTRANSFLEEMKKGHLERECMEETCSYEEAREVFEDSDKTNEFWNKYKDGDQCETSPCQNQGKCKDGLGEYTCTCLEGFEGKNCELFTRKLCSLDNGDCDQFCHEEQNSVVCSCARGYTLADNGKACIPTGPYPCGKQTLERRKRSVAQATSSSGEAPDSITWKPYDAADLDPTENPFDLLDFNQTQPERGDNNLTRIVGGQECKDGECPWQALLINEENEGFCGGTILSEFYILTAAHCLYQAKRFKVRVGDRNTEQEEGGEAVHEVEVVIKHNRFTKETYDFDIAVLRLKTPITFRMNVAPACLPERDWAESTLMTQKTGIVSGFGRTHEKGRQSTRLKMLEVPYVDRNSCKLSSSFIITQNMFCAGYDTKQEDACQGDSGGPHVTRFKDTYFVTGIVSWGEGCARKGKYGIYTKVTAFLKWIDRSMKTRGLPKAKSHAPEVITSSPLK
# number then unit; no other words

FIXa-K247N/N249S/R338E/T343R/R403E/E410N (protein) chain 1: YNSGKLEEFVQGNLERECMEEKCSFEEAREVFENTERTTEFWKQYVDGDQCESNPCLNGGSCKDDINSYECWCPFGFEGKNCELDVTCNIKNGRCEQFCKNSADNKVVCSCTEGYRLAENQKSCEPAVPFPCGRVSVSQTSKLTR chain 2: VVGGEDAKPGQFPWQVVLNGKVDAFCGGSIVNEKWIVTAAHCVETGVKITVVAGEHNIEETEHTEQNRSVIRIIPHHNYNAAINKYNHDIALLELDEPLVLNSYVTPICIADKEYTNIFLKFGSGYVSGWGRVFHKGRSALVLQYLRVPLVDRATCLESTKFRIYNNMFCAGFHEGGRDSCQGDSGGPHVTEVEGTSFLTGIISWGEECAMKGKYGIYTKVSEYVNWIKNKTKLT; 930%

Q. Consider the protein FIXa-K247N/N249S/R338E/T343R/R403E (protein) chain 1: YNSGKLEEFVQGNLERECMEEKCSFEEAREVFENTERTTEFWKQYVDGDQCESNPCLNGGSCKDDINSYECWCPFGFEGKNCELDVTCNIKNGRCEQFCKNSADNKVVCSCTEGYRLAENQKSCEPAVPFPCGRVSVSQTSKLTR chain 2: VVGGEDAKPGQFPWQVVLNGKVDAFCGGSIVNEKWIVTAAHCVETGVKITVVAGEHNIEETEHTEQNRSVIRIIPHHNYNAAINKYNHDIALLELDEPLVLNSYVTPICIADKEYTNIFLKFGSGYVSGWGRVFHKGRSALVLQYLRVPLVDRATCLESTKFRIYNNMFCAGFHEGGRDSCQGDSGGPHVTEVEGTSFLTGIISWGEECAMKGKYGIYTKVSEYVNWIKEKTKLT and give its measured % of WT kcat/KM.
A. 1215%

Q. Entry FIXa variant D203N/F205T/R338E (protein) chain 1: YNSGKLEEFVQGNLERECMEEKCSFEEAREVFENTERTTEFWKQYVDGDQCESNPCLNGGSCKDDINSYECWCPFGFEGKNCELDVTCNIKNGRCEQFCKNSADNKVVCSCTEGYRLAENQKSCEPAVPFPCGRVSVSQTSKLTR chain 2: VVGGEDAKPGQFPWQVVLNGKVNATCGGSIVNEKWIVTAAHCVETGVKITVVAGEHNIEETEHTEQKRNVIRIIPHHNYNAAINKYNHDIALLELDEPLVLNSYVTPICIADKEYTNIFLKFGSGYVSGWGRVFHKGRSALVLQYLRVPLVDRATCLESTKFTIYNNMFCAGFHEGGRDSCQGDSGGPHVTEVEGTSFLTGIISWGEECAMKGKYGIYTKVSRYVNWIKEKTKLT please
A. 228%

Q. Entry FIXa-Y155F/K247N/N249S/R318Y/T343R/R403E/E410N (protein) chain 1: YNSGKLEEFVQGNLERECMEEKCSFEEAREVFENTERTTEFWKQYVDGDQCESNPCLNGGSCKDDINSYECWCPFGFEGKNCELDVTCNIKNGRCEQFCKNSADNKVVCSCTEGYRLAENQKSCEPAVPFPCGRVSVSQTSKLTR chain 2: VVGGEDAKPGQFPWQVVLNGKVDAFCGGSIVNEKWIVTAAHCVETGVKITVVAGEHNIEETEHTEQNRSVIRIIPHHNYNAAINKYNHDIALLELDEPLVLNSYVTPICIADKEYTNIFLKFGSGYVSGWGRVFHKGYSALVLQYLRVPLVDRATCLRSTKFRIYNNMFCAGFHEGGRDSCQGDSGGPHVTEVEGTSFLTGIISWGEECAMKGKYGIYTKVSEYVNWIKNKTKLT please
A. 350%

Q. Entry FIXa variant Y155F/R318Y/R403E/E410N (protein) chain 1: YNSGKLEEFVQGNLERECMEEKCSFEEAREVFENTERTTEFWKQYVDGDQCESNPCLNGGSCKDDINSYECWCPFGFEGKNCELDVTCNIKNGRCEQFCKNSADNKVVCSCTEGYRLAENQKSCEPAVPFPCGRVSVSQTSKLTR chain 2: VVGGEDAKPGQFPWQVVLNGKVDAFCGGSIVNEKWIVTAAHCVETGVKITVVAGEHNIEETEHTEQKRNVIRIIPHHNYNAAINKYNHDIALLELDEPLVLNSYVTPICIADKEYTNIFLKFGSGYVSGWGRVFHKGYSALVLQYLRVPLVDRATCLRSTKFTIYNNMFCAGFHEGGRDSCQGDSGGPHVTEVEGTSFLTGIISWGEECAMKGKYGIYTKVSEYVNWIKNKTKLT please
A. 78%

Q. Entry FIXa-Y155F/I251S/R318Y/R338E/R403E/E410N (protein) chain 1: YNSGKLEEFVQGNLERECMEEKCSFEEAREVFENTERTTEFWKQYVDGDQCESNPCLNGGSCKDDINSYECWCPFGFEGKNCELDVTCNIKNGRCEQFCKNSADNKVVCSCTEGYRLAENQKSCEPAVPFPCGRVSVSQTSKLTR chain 2: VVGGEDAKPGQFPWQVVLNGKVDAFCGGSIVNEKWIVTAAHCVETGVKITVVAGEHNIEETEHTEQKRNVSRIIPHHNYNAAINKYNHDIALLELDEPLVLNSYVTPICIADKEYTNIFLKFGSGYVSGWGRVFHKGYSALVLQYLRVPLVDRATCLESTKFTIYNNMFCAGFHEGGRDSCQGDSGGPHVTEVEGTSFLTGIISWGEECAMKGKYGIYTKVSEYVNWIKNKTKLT please
A. 363%

Q. Entry FIXa-K247N/N249S/R318Y/R338E/T343R (protein) chain 1: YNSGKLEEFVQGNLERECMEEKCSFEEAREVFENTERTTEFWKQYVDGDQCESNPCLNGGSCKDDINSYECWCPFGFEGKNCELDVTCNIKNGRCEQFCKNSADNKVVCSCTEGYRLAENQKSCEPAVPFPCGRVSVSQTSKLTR chain 2: VVGGEDAKPGQFPWQVVLNGKVDAFCGGSIVNEKWIVTAAHCVETGVKITVVAGEHNIEETEHTEQNRSVIRIIPHHNYNAAINKYNHDIALLELDEPLVLNSYVTPICIADKEYTNIFLKFGSGYVSGWGRVFHKGYSALVLQYLRVPLVDRATCLESTKFRIYNNMFCAGFHEGGRDSCQGDSGGPHVTEVEGTSFLTGIISWGEECAMKGKYGIYTKVSRYVNWIKEKTKLT please
A. 840%
